Source: patent US20210380707A1

Measurement target: T1, human CD70 (human, UniProt P32970 1-193)
T1 construct: Endogenous CD70 in FFPE cells and tissue sections, detected by IHC; also called CD70 antigen
T1 sequence: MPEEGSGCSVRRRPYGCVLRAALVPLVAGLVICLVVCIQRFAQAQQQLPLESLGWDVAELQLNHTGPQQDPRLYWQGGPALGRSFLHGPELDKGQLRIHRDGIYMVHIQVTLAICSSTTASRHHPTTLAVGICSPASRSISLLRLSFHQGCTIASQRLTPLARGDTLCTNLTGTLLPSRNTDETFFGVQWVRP
Assay remarks: IHC Leica BOND, ER2, FFPE ACHN cells, 5 µg/mL

Binder	binding result
18F8A8 (antibody, IgG1, V domains shown, Mouse hybridoma antibody, IgG1, Kappa; Only variable domains are printed) VH: QVTLKESGPGILQPSQTLSLTCSFSGFSLSTSNMGVAWIRQPLGKGLEWLLYILWNDTKYYNPALKSRLSISKDTYNNQVFLKIVNVDTADTATYYCARIRRDYALDYWGQGTSVTVSS VL: DIVMSQSPSSLAVSVGEKVTMNCKSSQSLLYSNNQKNYLAWYQQKPGQSPKLLIYWASTRESGVPDRFTGSGSGTDFTLTISSVKAEDLAVYYCQQYYIYPLAFGGGTKLEIK	binds
4E6G9 (antibody, V domains shown, Mouse IgG1, Kappa; Only variable domains are printed; also called 4E6G9 antibody (Ms IgG1, kappa); recombinant antibody 4E6G9) VH: QIQLVQSGPELKKAGETVKISCKASGYTFAAYSMHWVKQAPGKGLKWMGWINTETGEPTYADDFKGRFAFSLETSASTAYLQINNLKNEDTATYFCTRDDYDGGRFSYWYFAVWGAGTTVTVSS VL: DIQMTQSPSSLSASLGGKVTITCKASQDINKYIAWYQHRPGKGPRLLIRYTSTLQPGIPSRFSGSGSGRDYSFSINNLEPEDIATYYCLQYDNLLTFGGGTKLEIK	binds
16D7C8 (antibody, IgG3, V domains shown, Mouse hybridoma antibody, IgG3, Kappa; Only variable domains are printed) VH: QVQLQQSGPELVKPGASVRISCKASGYTFTSFYIHWVKQRPGQGLEWIGWISPINININYNEKFKGKATLTADKSSSTVYMQLSSLTSEDSAVYFCEGTSENFDVWGAGTTVTVSS VL: DVLMTQIPLSLPVSLGDQASISCRSTQNIVHSNGNTYLEWYLQKPGQSPKLLIYKVSNRFSGVPDRFRGSGSGTEFTLKITRVEADDLGVYYCFQGSHVPFTFGAGTKLELK	binds
19H7E4 (antibody, IgG1, V domains shown, Mouse hybridoma antibody, IgG1, Kappa; Only variable domains are printed) VH: QVTLKESGPGILQPSQTLSLTCSFSGFSLSTSNVGVGWIRQPSGKGLEWLLHILWNDGKYYNPALKSRLTISKDTSTNQVFLKIADVDTADSATYYCARLRRDYGMDYWGQGTSVTVSS VL: DIVMSQSPSSLAVSVGEKVTMSCKSSQSLLYSYNQKNYLAWYQQKPGQSPKLLIYWASTRESGVPDRFTGSGSGTDFTLTISSVKAEDLAVYYCQQYYTYPYAFGGGTKLEIK	binds
